Target: MBP-RAMP2 ECD [L106R]-(GS)5-CLR ECD-H6 fusion protein (human) (UniProt O60895)
Sequence (O60895 other isoform, or with tags, fused parts or gaps L106R L106R): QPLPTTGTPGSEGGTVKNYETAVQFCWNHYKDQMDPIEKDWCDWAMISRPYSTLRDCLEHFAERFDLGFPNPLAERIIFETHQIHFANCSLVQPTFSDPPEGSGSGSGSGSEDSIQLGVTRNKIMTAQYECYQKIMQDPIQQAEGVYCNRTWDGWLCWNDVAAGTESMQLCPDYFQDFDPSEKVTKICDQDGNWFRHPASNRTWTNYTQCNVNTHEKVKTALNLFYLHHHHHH
Test: FP competition vs FITC-AM W/W probe, purified ECD fusion
Where no end group is shown, it is not given here.
quantity: Ki (nM)
Unit nM implied. Number only.

*Q* Returns the measured Ki for the input binder. Input: DKDNVAPRSLISPWGY-NH2 [AM(37-52)NH2 [K46L, Q50W]]
*A* 1660

*Q* Returns the measured Ki for the input binder. Input: FVPTDTGPWSF-NH2 [CGRP(27-37)NH2 [N31D, V32T, S34P, K35W, A36S]]
*A* 2750

*Q* Returns the measured Ki for the input binder. Input: DKDNVAPRWMISPWGF-NH2 [AM(37-52)NH2 [S45W, K46M, Q50W, Y52F]]
*A* 7760

*Q* Returns the measured Ki for the input binder. Input: DKDNVAPRSKISPWGY-NH2 [AM(37-52)NH2 [Q50W]]
*A* 316

*Q* Returns the measured Ki for the input binder. Input: DKDNVAPRWKISPWGY-NH2 (also called S45W/Q50W double mutant) [AM(37-52)NH2 [S45W, Q50W]]
*A* 81.3

*Q* Returns the measured Ki for the input binder. Input: FVPTDTGPWGY-NH2 [CGRP(27-37)NH2 [N31D, V32T, S34P, K35W, A36G, F37Y]]
*A* 14500

*Q* Returns the measured Ki for the input binder. Input: DKDNVAPRTLISPWGY-NH2 [AM(37-52)NH2[S45T, K46L, Q50W]]
*A* 1570
